System: HL-60(TB) leukemia
Assay: NCI-60 one-dose screen, 48 h (100 = growth as untreated, 0 = no growth, -100 = all killed)
Details: 10 µM unless noted
Description: Growth inhibition of the HL-60(TB) human tumor cell line is measured as a screen for anti-cancer activity. Cells are grown in 96 well plates and exposed to the test compound for 48 hours. Compounds are tested at a single concentration, which is 10^-5 M for most compounds. The reported endpoint is percent growth (GI% or GIPRCNT), where numbers from 0 - 100% represent growth inhibition, and numbers from -100% - 0 represent cell death. For example, a value of 40 represents 60% growth inhibition. […]
The panel holds about 83,000 compounds, 20% with a hit somewhere; the sample as a whole holds those more often.
Label Condition met for high-side growth (at or above 50%) and Condition not met for low-side growth (below it).

# Compound, Assay target, Assigned category
measured = [
    ("COc1ccccc1CNCCCN1C(=O)c2ccc3c4c(ccc(c24)C1=O)C(=O)N(CCCNCCCCN)C3=O", "HL-60(TB) leukemia", "Condition not met"),
    ("NS(=O)(=O)Oc1ccc2c(ccn2C(=O)C23CC4CC(CC(C4)C2)C3)c1", "HL-60(TB) leukemia", "Condition met"),
    ("COC(=O)C(=[N+]=[N-])C(=O)OC", "HL-60(TB) leukemia", "Condition met"),
    ("COc1ccc(C(=O)C2C(C#N)C(C#N)C3C=Cc4ccccc4N32)cc1 (configuration not stated)", "HL-60(TB) leukemia", "Condition not met"),
    ("COc1ccc(C(=O)c2sc3nc4c(c(-c5cccnc5)c3c2N)CCCC4)cc1OC", "HL-60(TB) leukemia", "Condition met"),
    ("O=C1C=C(Cl)C(=O)c2ccccc21", "HL-60(TB) leukemia", "Condition met"),
    ("CCOC(=O)c1c(C)nc2c(c1N)/C(=C/c1cc(OC)c(OC)c(OC)c1)C(=O)N2c1ccc(OC)cc1", "HL-60(TB) leukemia", "Condition not met"),
    ("COc1ccc(C(=O)c2cc(C)c(OC)c(C)c2)c(OC)c1NC(C)=O", "HL-60(TB) leukemia", "Condition not met"),
    ("COc1ccc(Nc2ncnc3ccc(-c4cncc(NS(C)(=O)=O)c4)cc23)cc1Cl", "HL-60(TB) leukemia", "Condition not met"),
    ("COc1cc(CNC(=O)CCCC/C=C/C(C)C)ccc1OCc1cn(-c2cccc([N+](=O)[O-])c2)nn1", "HL-60(TB) leukemia", "Condition met"),
    ("COc1ccc(-n2cnc3c(sc4ncc(Cl)cc43)c2=O)cc1", "HL-60(TB) leukemia", "Condition met"),
    ("COc1ccc(NC(=O)Cc2nc3nc4sc(C)c(C)c4c(=O)n3[nH]2)cc1", "HL-60(TB) leukemia", "Condition met"),
    ("CN1CCN(Cc2ccc(NC(=O)c3cncc(C#Cc4cnccc4C#N)c3)cc2C(F)(F)F)CC1", "HL-60(TB) leukemia", "Condition not met"),
    ("S=c1[nH]nc(CSc2ncnc3c2c(-c2ccccc2)cn3-c2ccc(Cl)cc2)o1", "HL-60(TB) leukemia", "Condition met"),
    ("O=C1C[C@H](N2C(=O)c3ccccc3S2(=O)=O)C2CO[C@@H]1O2", "HL-60(TB) leukemia", "Condition met"),
    ("COc1ccc2c(c1)nc(N)c1c3ccccc3cn21", "HL-60(TB) leukemia", "Condition met"),
    ("N#Cc1ncc(/N=C/c2ccc(N(CCCl)CCCl)cc2)s1", "HL-60(TB) leukemia", "Condition not met"),
    ("N#Cc1c(NC(=O)c2ccccc2)sc2c1CCC(=O)C2", "HL-60(TB) leukemia", "Condition not met"),
    ("O=C(NCCCl)Nc1nccnc1OCc1ccc(F)cc1", "HL-60(TB) leukemia", "Condition not met"),
    ("COc1ccc(N=Nc2ccc(O)c(=O)cc2)cc1", "HL-60(TB) leukemia", "Condition not met"),
    ("CC(C)CCSc1nc(N)nc2nc[nH]c12", "HL-60(TB) leukemia", "Condition met"),
]
